# studyTarget: Thyrotropin-releasing hormone receptor (Homo sapiens) (UniProt P34981)
# Sequence (P34981 whole entry, looked up): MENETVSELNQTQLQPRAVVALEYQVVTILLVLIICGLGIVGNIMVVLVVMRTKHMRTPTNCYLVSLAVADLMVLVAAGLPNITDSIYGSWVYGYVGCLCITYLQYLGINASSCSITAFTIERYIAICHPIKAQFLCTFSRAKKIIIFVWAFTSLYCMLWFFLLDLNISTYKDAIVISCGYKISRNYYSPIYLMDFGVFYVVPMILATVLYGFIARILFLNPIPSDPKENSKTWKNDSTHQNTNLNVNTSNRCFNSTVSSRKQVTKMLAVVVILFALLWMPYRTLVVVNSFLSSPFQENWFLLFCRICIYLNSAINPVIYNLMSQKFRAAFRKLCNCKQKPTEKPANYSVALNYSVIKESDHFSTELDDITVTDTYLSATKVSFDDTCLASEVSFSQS
# protocolNotes: qHTS assay to identify small molecule antagonists of the thyrotropin-releasing hormone receptor (TRHR) signaling pathway (AID 1346877)
# conditionDetails: TRHR-HEK293, TRH-induced calcium fluorescence, antagonist mode; series mostly up to 51.3 µM
Activity calls are given as the source filed them. Calls follow the shape of the dose curve; as a rule, active = well fitted inhibition curve with a large enough effect in the repeat runs (not every such curve was filed as active); inconclusive = weak or mixed curves; inactive = flat fitted curve, though single readings scatter.
readoutKind: activity, negative = inhibition

compound | activity, negative = inhibition
CCSCc1ccccc1OC(=O)NC | inactive
CCC1(CC)C(=O)NC(=O)NC1=O | inactive
C[C@H]1O[C@H](OC2[C@@H](O)[C@@H](O)C(O)[C@H](O)[C@H]2O)[C@@H](N)C[C@@H]1N=C(N)C(=O)O (some centres undefined) | inactive
CCOC(C(=O)OCCN(C)C)(c1ccccc1)c1ccccc1 | inactive

### Prompt Could you share what activity, negative = inhibition was measured for CCCN(CCC)C(=O)Cc1c(-c2ccc(Cl)cc2)nc2ccc(Cl)cn12 , tested on Thyrotropin-releasing hormone receptor (Homo sapiens) (UniProt P34981)?
### Response inactive

### Prompt Form field - read-out: activity, negative = inhibition; system: Thyrotropin-releasing hormone receptor (Homo sapiens) (UniProt P34981); submitted item: N#CC(C#N)=Cc1ccc(O)c(O)c1
### Response inactive

### Prompt Lab note: need activity, negative = inhibition with Thyrotropin-releasing hormone receptor (Homo sapiens) (UniProt P34981) for entry CCCCCBr , please look it up.
### Response inactive

### Prompt Report activity, negative = inhibition for O=S(=O)(Cl)Cl tested on Thyrotropin-releasing hormone receptor (Homo sapiens) (UniProt P34981).
### Response inactive

### Prompt Given the entry O=C(Cc1ccccc1)c1ccccc1 , what activity, negative = inhibition was observed with Thyrotropin-releasing hormone receptor (Homo sapiens) (UniProt P34981)?
### Response inactive

### Prompt Hello, I am looking for reported activity, negative = inhibition with Thyrotropin-releasing hormone receptor (Homo sapiens) (UniProt P34981) for CCOP(=S)(S)OCC . Could you help?
### Response inactive

### Prompt Lab request: please report activity, negative = inhibition under test system Thyrotropin-releasing hormone receptor (Homo sapiens) (UniProt P34981) for COC1=CC(=O)O[C@@H](/C=C/c2ccc3c(c2)OCO3)C1
### Response inactive

---

# protocolNotes: qHTS assay to identify small molecule antagonists of the retinoic acid receptor (RAR) signaling pathway (AID 1159552; also: nearly all actives have a fitted effect of over 50% in size)
# conditionDetails: C3RL4 RARE luciferase reporter, retinol-stimulated, 6 h; series mostly up to 92.4 µM
Inconclusive results are not listed. Active and inactive are the calls of the source. The call rests on the fitted dose curve; in most records, active means well fitted inhibition curve with a large enough effect in the repeat runs; inconclusive means weak or mixed curves, or effect the other way; inactive means no such curve, though single readings can be large or run the other way.
Would you mind answering with one of these outcomes? active, inactive

Consider the worked cases shown below.
inputSmiles | answerLabel
CC(C)(C)N(NC(=O)c1ccc(Cl)cc1)C(=O)c1ccccc1 | inactive
OC[P+](CO)(CO)CO | inactive
CCC1(CC)C(=O)NC(=O)NC1=O | inactive
CCCCCBr | inactive
O=C(Cl)OCCOCCOC(=O)Cl | active
CCCCC#N | inactive

### Prompt Which result was noted for this compound in the test: c1ccc2c(c1)sc1ccccc12
### Response inactive

### Prompt Which result was noted for this compound in the test: Cc1ccc2c(C)cccc2c1
### Response inactive

---

# protocolNotes: qHTS assay for identifying genotoxic compounds that show differential cytotoxicity against isogenic chicken DT40 cell lines with known DNA damage response pathways - Rev3 mutant cell line (AID 743014); also: nearly all actives have a fitted effect of over 55% in size
# conditionDetails: chicken DT40 Rev3-/- viability, CellTiter-Glo, 40 h; series mostly up to 68.4 µM
# Text: National Center for Advancing Translational Sciences [NCATS] NIH Chemical Genomics Center [NCGC] U.S. Environmental Protection Agency [EPA] National Institutes of Environmental Health Sciences [NIEHS] National Toxicology Program [NTP] U.S. Food and Drug Administration [FDA] DNA repair pathways play a critical role in cellular homeostasis by repairing DNA damage induced by endogenous processes and xenobiotics. […]
Records with an inconclusive call do not appear. The source made the active and inactive calls. Calls come from the whole dose curve; as a rule, active = well fitted cell-killing curve with a large enough effect in the repeat runs; inconclusive = weak or mixed curves, or effect the other way; inactive = no such curve, though single readings can be large or run the other way.
Write down the outcome that applies. Available outcomes: true for active, false for inactive

compound | answerLabel
CC(O)CN1CCN(CC(=O)[O-])CCN(CC(=O)[O-])CCN(CC(=O)[O-])CC1.[Gd+3] (configuration not stated) | false
CCC1(CC)C(=O)NC(=O)NC1=O | false
CON(C)C(=O)Nc1ccc(Cl)cc1 | false
CCCC1CCCCN1 (configuration not stated) | false
CCCC[N+](CCCC)(CCCC)CCCC | true

### Prompt Field: outcome | Entry: C=C(Cl)Cl
### Response false

### Prompt Test call for this compound, please: CCOC(=O)c1cncn1C(C)c1ccccc1 (configuration not stated)
### Response false

### Prompt Record request — test call for CCCCC#N
### Response false
